system: MS2 coat protein; test: apparent Kd, MS2 coat protein; higher = weaker binding; RNA-MaP array; theophylline 2 mM where present; conditions: ligand present: theophylline; designed as: ON switch for theophylline
The following sequences are listed with their measured apparent Kd values.

MACROMOLECULE_SEQUENCE: UCGUGAGUUUCGGAUACCAGUGUUGUCGAUACAUGAGGAUCACCCAUGUUAGAGGAUGUACACCCUUGGCAGCCGGCUGUGGCGG
apparent Kd: 11.3 nM
--
MACROMOLECULE_SEQUENCE: UGUAUGUGAUCUGAUACCAGUCCCUUGGCAGCAACAUGAGGAUCACCCAUGUAGAUACCAGACCCUUGGCAGCAGAUCGCAUACU
apparent Kd: 8.27 nM
--
MACROMOLECULE_SEQUENCE: GCACUACAUGAGGAUCACCCAUGUGCAGAUACCAGAGGUGUAUGCCUCCCUUGGCAGCUGCGUCGCUCUGGAAGCCUAUUGGUUU
apparent Kd: 20.9 nM
--
MACROMOLECULE_SEQUENCE: UCGUGUAUAACGGAUACCAGUGAGAAGGAUACAUGAGGAUCACCCAUGUGAGUUGAUGUACACCCUUGGCAGCUGUAUAUAUCUA
apparent Kd: 49.6 nM
--
MACROMOLECULE_SEQUENCE: CAGAACAUGAGGAUCACCCAUGUCAGGGAUACCAGCUCAGACAUGGGCCCUUGGCAGCUCUGUGGCUGACGAAAGUCAGCAUCUG
apparent Kd: 185 nM
--
MACROMOLECULE_SEQUENCE: AUCGUACCUGGUGAUACCAGCAAUUGCUCGUGACAUGAGGAUCACCCAUGUGGCCAGUGAUGCCCUUGGCAGCAUGGUCGGUGCA
apparent Kd: 89.3 nM
--
MACROMOLECULE_SEQUENCE: AGAUUACAUGUUUUAAUAAGAUAAACUGAUACCAGUGUAUAUAUUCACCCUUGGCAGCAGCAACAUGAGGAUCACCCAUGUAUUA
apparent Kd: 15.2 nM
